Target: recombinant human PAI-1 (Homo sapiens, UniProt P05121)
Construct: purchased Molecular Innovations, Inc
Sequence (P05121 24-402): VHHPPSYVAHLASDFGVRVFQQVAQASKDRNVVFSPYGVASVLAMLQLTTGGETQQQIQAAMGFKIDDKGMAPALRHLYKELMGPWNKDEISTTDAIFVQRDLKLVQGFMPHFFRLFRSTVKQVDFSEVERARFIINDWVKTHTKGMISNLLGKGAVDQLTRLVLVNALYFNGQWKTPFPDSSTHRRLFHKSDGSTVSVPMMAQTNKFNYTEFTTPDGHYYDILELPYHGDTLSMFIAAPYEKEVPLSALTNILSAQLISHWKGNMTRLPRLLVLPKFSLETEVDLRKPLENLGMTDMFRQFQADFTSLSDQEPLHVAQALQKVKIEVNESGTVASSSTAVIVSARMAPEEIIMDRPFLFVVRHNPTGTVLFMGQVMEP
Experiment: Test Example 2: human PAI-1 inhibitory activity (tPA fluorogenic substrate, pH 7.4 HEPES buffer)
Type: biochemical
Details: human PAI-1; compound concentration 1 μM
Endpoint Label: Inhibition Rate of PAI-1 Activity (%)

Known results for compounds:
INSERT INTO measurements (smiles_entry, target, result_unit, numeric_readout) VALUES
  ('CC(C)(C)c1ccc(Oc2cc(-c3cc(Cl)ccc3Cl)ccc2OCC(=O)O)cc1', 'recombinant human PAI-1 (Homo sapiens, UniProt P05121)', '%', 93),
  ('CC(C)(C)c1ccc(CN(C(=O)C(=O)O)c2ccc(N3CCN(c4ccc(OC(F)(F)F)cc4)CC3)cc2)cc1', 'recombinant human PAI-1 (Homo sapiens, UniProt P05121)', '%', 40);

I. CC(C)(C)c1ccc(CN(C(=O)CC(=O)O)c2ccc(-c3ccc(OC(F)(F)F)cc3)cc2)cc1
II. CC(C)(C)c1ccc(Oc2ccc(-c3ccc(OC(F)(F)F)cc3)cc2OCC(=O)O)cc1
Query: Task for the reader: decide whether I or II has the larger Inhibition Rate of PAI-1 Activity (%). Select an item and report its label.
Response: II
(II: 30%, I: 11%)

###

Biological target: recombinant human PAI-1 (Homo sapiens, UniProt P05121)
Construct: purchased Molecular Innovations, Inc
Experiment: Test Example 1: human PAI-1 inhibitory activity (tPA fluorogenic substrate, pH 7.5 Tris buffer)
Format: biochemical
Details: Compound Concentration 5 μM; Tris buffer
Method: 50 mM Tris, 150 mM NaCl, 10 μg/ml BSA, 0.01% Tween80 (SIGMA-ALDRICH Corporation)
Endpoint Label: Inhibition Rate of PAI-1 Activity (%)

Known results for compounds:
INSERT INTO assay_data (compound, numeric_readout) VALUES
  ('CC(C)(C)c1ccc(CN(C(=O)C(=O)O)c2ccc(SCc3ccc(OC(F)(F)F)cc3)cc2)cc1 [Compound 630]', 56),
  ('O=C(O)C=Cc1cc(-c2ccc(OC(F)(F)F)cc2)ccc1Oc1ccc(OC(F)(F)F)cc1 [Compound 15]', 23),
  ('O=C(O)C(=O)N(CCCCc1ccccc1)c1ccc(N2CCOCC2)c(-c2ccc(OC(F)(F)F)cc2)c1 [Compound 243]', 42),
  ('Cc1cc(-c2ccc(OC(F)(F)F)cc2)cc(/C=C/C(=O)O)c1OCc1ccc(C(C)(C)C)cc1 [Compound 83]', 27);

P. Cc1cc(N(Cc2ccc(C(C)(C)C)cc2)C(=O)C(=O)O)ccc1-c1ccc(OC(F)(F)F)cc1 [Compound 184]
Q. CC(C)(C)c1ccc(-c2ccc(OCc3ccccc3)c(CCC(=O)O)c2)cc1 [Compound 48]
Query: Identify the entry with the larger Inhibition Rate of PAI-1 Activity (%). Options: P and Q Identify your pick by its label.
Response: P
(P: 59%, Q: 20%)

P. CC(C)(C)c1ccc(COc2ccc(-c3ccc4c(c3)OCO4)cc2CC(=O)O)cc1 [Compound 10]
Q. O=C(O)C(=O)N(CCCCc1ccccc1)c1ccc(N2CCCCC2)c(-c2ccc(OC(F)(F)F)cc2)c1 [Compound 247]
Query: For the pair P and Q , which entry has the numerically smaller recorded Inhibition Rate of PAI-1 Activity (%)? Write down the label of the entry you select.
Response: P
(P: 32%, Q: 93%)

###

Biological target: recombinant human PAI-1 (Homo sapiens, UniProt P05121)
Construct: purchased Molecular Innovations, Inc
Experiment: Test Example 2: human PAI-1 inhibitory activity (tPA fluorogenic substrate, pH 7.4 HEPES buffer)
Type: biochemical
Conditions: human PAI-1; compound concentration 3 μM
Endpoint Label: Inhibition Rate of PAI-1 Activity (%)

Worked set:
INSERT INTO measurements (molecule, endpoint_label, numeric_readout) VALUES
  ('CCCCC1CCC(Oc2ccc(-c3ccc(OC(F)(F)F)cc3)cc2N(CCCCc2ccccc2)C(=O)C(=O)O)CC1 (stereo not shown)', 'Inhibition Rate of PAI-1 Activity (%)', 71),
  ('CC(C)(C)c1ccc(Oc2cc(-c3ccc(OC(F)(F)F)cc3)ccc2/C=C\C(=O)O)cc1', 'Inhibition Rate of PAI-1 Activity (%)', 98),
  ('CC(C)(C)OCCOc1ccc(-c2ccc(OC(F)(F)F)cc2)cc1N(CCCCc1ccccc1)CC(=O)O', 'Inhibition Rate of PAI-1 Activity (%)', 93);

a. CC(C)(C)c1ccc(CN(C(=O)C(=O)O)c2ccc(N3CCN(c4ccccc4)CC3)cc2)cc1
b. CC(C)(C)c1ccc(Oc2cc(-c3cccc(OC(F)(F)F)c3)ccc2/C=C/C(=O)O)cc1
Query: Which one would you say has the larger Inhibition Rate of PAI-1 Activity (%) value: a , or b ? Choose, then provide that item's label.
Response: b

###

Molecular target: recombinant human PAI-1 (Homo sapiens)
Construct: purchased Molecular Innovations, Inc
Assay: Test Example 1: human PAI-1 inhibitory activity (tPA fluorogenic substrate, pH 7.5 Tris buffer)
Assay type: biochemical
Conditions: Compound Concentration 25 μM; Tris buffer
Endpoint Label: Inhibition Rate of PAI-1 Activity (%)

INSERT INTO results (compound, result_unit, numeric_readout) VALUES
  ('O=C(O)COc1cc(-c2ccc(OC(F)(F)F)cc2)ccc1OCCCCc1ccccc1 [Compound 115]', '%', 90),
  ('COc1ccc(-c2ccc(OC(F)(F)F)cc2)cc1N(Cc1ccc(C(C)(C)C)cc1)C(=O)C(=O)O [Compound 182]', '%', 89),
  ('CC(c1ccc(C(C)(C)C)cc1)N(C(=O)C(=O)O)c1ccc(-c2ccc(OC(F)(F)F)cc2)cc1 (stereo not shown) [Compound 220]', '%', 89),
  ('O=C(O)C(=O)N(Cc1ccc(OC(F)(F)F)cc1)c1ccc(-c2ccc(OC(F)(F)F)cc2)cc1 [Compound 159]', '%', 92);

###

Molecular target: recombinant human PAI-1 (Homo sapiens, UniProt P05121)
Construct: purchased Molecular Innovations, Inc
Experiment: Test Example 1: human PAI-1 inhibitory activity (tPA fluorogenic substrate, pH 7.5 Tris buffer)
Assay type: biochemical
Conditions: Compound Concentration 25 μM; Tris buffer
Method: 50 mM Tris, 150 mM NaCl, 10 μg/ml BSA, 0.01% Tween80 (SIGMA-ALDRICH Corporation)
Endpoint Label: Inhibition Rate of PAI-1 Activity (%)

INSERT INTO assay_data (molecule, endpoint_label, numeric_readout) VALUES
  ('COc1ccc(-c2ccc(OCc3ccc(C(C)(C)C)cc3)c(CCC(=O)O)c2)cc1 [Compound 38]', 'Inhibition Rate of PAI-1 Activity (%)', 93),
  ('O=C(O)CCc1cc(-c2ccc(OC(F)(F)F)cc2)ccc1OCCCCCc1ccccc1 [Compound 104]', 'Inhibition Rate of PAI-1 Activity (%)', 96);

1. O=C(O)CCc1cc(-c2ccc(OC(F)(F)F)cc2)ccc1OCc1cccc(C(F)(F)F)c1 [Compound 58]
2. Cc1ccc(CN(C(=O)C(=O)O)c2ccc(-c3ccc(OC(F)(F)F)cc3)cc2)cc1 [Compound 143]
Query: // which entry has the larger Inhibition Rate of PAI-1 Activity (%) value, 1 or 2 ? Your answer should be the label attached to the chosen record.
Response: 1

###

Molecular target: recombinant human PAI-1 (Homo sapiens, UniProt P05121)
Construct: purchased Molecular Innovations, Inc
Assay: Test Example 1: human PAI-1 inhibitory activity (tPA fluorogenic substrate, pH 7.5 Tris buffer)
Assay type: biochemical
Settings: Compound Concentration 5 μM; Tris buffer
Endpoint Label: Inhibition Rate of PAI-1 Activity (%)

INSERT INTO assay_data (smiles_entry, endpoint_label, numeric_readout) VALUES
  ('CC(C)Oc1ccc(N(CCCCc2ccccc2)C(=O)C(=O)O)cc1-c1ccc(OC(F)(F)F)cc1', 'Inhibition Rate of PAI-1 Activity (%)', 60),
  ('O=C(O)C(=O)N(c1ccc(-c2ccc(OC(F)(F)F)cc2)cc1)C1CCCCC1', 'Inhibition Rate of PAI-1 Activity (%)', 9),
  ('CSc1ccc(CN(C(=O)C(=O)O)c2ccc(-c3ccc(OC(F)(F)F)cc3)cc2)cc1', 'Inhibition Rate of PAI-1 Activity (%)', 14),
  ('CC(C)(C)c1ccc(CN(C(=O)C(=O)O)c2ccc(-c3ccc(OC(F)(F)F)cc3)c(CCC(=O)O)c2)cc1', 'Inhibition Rate of PAI-1 Activity (%)', 18),
  ('CC(C)(C)c1ccc(-c2ccc(Oc3ccc(-c4ccc(OC(F)(F)F)cc4)cc3/C=C/C(=O)O)c(CCC(=O)O)c2)cc1', 'Inhibition Rate of PAI-1 Activity (%)', 75),
  ('CC(C)(C)c1ccc(COc2ccc(-c3ccc(OC(F)(F)F)cc3)cc2NC(=O)C(=O)[O-])cc1.[Na+]', 'Inhibition Rate of PAI-1 Activity (%)', 83),
  ('Cc1cc(C)cc(COc2ccc(-c3ccc(OC(F)(F)F)cc3)cc2CC(=O)O)c1', 'Inhibition Rate of PAI-1 Activity (%)', 41),
  ('CC(C)(C)c1ccc(CN(C(=O)C(=O)O)c2ccc(OCc3ccccc3)c(-c3ccc(OC(F)(F)F)cc3)c2)cc1', 'Inhibition Rate of PAI-1 Activity (%)', 78),
  ('CCCOc1ccc(N(CCCc2ccccc2)C(=O)C(=O)O)c(-c2ccc(OC(F)(F)F)cc2)c1', 'Inhibition Rate of PAI-1 Activity (%)', 52),
  ('CC(C)(C)c1ccc(CN(C(=O)C(=O)O)c2ccc(C(F)(F)F)cc2-c2ccc(OC(F)(F)F)cc2)cc1', 'Inhibition Rate of PAI-1 Activity (%)', 59);

A. CCCCOc1ccc(-c2ccc(OC(F)(F)F)cc2)cc1N(CCCc1ccccc1)C(=O)C(=O)O
B. CCCCCCN(C(=O)C(=O)O)c1ccc(Oc2ccc(OC(F)(F)F)cc2)cc1
C. CC(C)(C)c1ccc(CN(C(=O)C(=O)O)c2cc(-c3ccccc3)cc(C(F)(F)F)c2)cc1
D. CC(C)(C)c1ccc(N(C(=O)C(=O)O)c2cccc(-c3ccc(OC(F)(F)F)cc3)c2)cc1
E. CC(C)(C)CN(C(=O)C(=O)O)c1ccc(-c2ccc(OC(F)(F)F)cc2)cc1
Query: Ascending by Inhibition Rate of PAI-1 Activity (%), please. Show the ranking through the labels, in the order asked for.
Response: E, B, C, D, A
(E: 2%, B: 3%, C: 6%, D: 26%, A: 66%)

a. CCCOc1ccc(N(CCCCc2ccccc2)C(=O)C(=O)O)cc1-c1ccc(OC(F)(F)F)cc1
b. O=C(O)C(=O)N(Cc1ccc(F)cc1)c1ccc(-c2ccc(OC(F)(F)F)cc2)cc1
c. O=C(O)C(=O)N(Cc1c(Cl)cccc1Cl)c1ccc(-c2ccc(OC(F)(F)F)cc2)cc1
Query: Sort low-to-high on Inhibition Rate of PAI-1 Activity (%), please. Would you mind listing the labels in the order requested?
Response: b, c, a
(b: 7%, c: 22%, a: 62%)

A. Cc1ccc(N(Cc2ccc(C(C)(C)C)cc2)C(=O)C(=O)O)cc1Oc1ccc(OC(F)(F)F)cc1
B. CC(C)(C)c1ccc(CN(C(=O)C(=O)O)c2ccc(-c3ccc(OC(F)(F)F)cc3)cc2OC(F)(F)F)cc1
Query: Hi team, can someone confirm which has the larger Inhibition Rate of PAI-1 Activity (%): A or B ? Thanks. Answer by stating the label of the chosen item.
Response: A
